Taken from paper PMC2946844.

Target of assay: T1, 1xMBD-GFP (UniProt Q9Z2E2 1-75)
T1 sequence: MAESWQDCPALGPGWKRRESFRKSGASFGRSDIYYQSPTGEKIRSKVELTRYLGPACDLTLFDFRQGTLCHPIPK
Experiment: SPR
Metric: Kd (nM)
Form entry: value (nM) — number only.

Record request: Kd value, item o_o_m/m_m_m (dsDNA, strand 1 5mC17; strand 2 5mC5,5mC12,5mC17) DNA 1: TTTGCGGTCCGCTGCCCGACCC DNA 2: GGGTCGGGCAGCGGACCGCAAA
209
